- test system: T1, cynomolgus CD3 (cynomolgus (Macaca fascicularis), UniProt Q95LI5 22-198; Q95LI8 22-171; Q95LI7 23-181)
- T1 construct: whole, on cells; composition of the 'mix' not defined; also called cynoCD3
- T1 sequence (Q95LI5 22-198, chain 1 of 3): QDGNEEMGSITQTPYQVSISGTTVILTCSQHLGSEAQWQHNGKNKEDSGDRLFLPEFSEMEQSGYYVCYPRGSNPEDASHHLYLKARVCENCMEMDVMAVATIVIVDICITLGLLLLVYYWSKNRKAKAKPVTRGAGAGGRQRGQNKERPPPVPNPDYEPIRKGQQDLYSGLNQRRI
- T1 sequence (Q95LI8 22-171, chain 2 of 3): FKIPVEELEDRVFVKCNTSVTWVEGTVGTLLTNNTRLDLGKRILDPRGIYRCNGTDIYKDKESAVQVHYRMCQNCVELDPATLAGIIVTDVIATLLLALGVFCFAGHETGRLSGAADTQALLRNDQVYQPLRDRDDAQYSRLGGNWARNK
- T1 sequence (Q95LI7 23-181, chain 3 of 3): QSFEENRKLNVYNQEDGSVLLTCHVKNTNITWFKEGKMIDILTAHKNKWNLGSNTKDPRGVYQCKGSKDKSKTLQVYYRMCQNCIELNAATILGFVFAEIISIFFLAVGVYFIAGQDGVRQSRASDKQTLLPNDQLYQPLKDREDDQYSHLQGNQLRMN
- test method notes: FACS on 293T-cynoCD3mix cells
Please respond with reported Top signal for every item in the list.

I have this binder here, hu147E2-L3H2 (antibody, V domains shown, humanized 147E11E2; also called hu14E2-L3H2) VH: EVQLVQSGAEVKKPGSSVKVSCKASGYTFTSYWMHWVRQAPGQGLEWMGNINPSNGATNYNEKFKSRVTITADKSTSTAYMELSSLRSEDTAVYYCARDRSSQYYFDYWGQGTTVTVSS VL: DIQMTQSPSSLSASVGDRVTITCKSSQSLLNSRSRKNYLAWYQQKPGKAPKLLIYWASTRESGVPSRFSGSGSGTDFTLTISSLQPEDFATYYCTQSYTLRTFGGGTKVEIK , and I need its recorded Top signal.
19200

I have this binder here, hu147E2-L2H4 (antibody, V domains shown, humanized 147E11E2; also called hu14E2-L2H4) VH: EVQLVQSGAEVKKPGSSVKVSCKASGYTFTSYWMHWVRQAPGQGLEWIGNINPSNGATNYNEKFKSRATLTVDKSTSTAYMELSSLRSEDTAVYYCARDRSSQYYFDYWGQGTTVTVSS VL: DIVMTQSPDSLAVSLGERATINCKSSQSLLNSRSRKNYLAWYQQKPGQSPKLLIYWASTRESGVPDRFSGSGSGTDFTLTISSLQAEDVAVYYCTQSYTLRTFGGGTKVEIK , and I need its recorded Top signal.
21200

I have this binder here, hu147E2-L1H3b (antibody, V domains shown, humanized 147E11E2 with N55S in HCDR2 (deamidation site removed); also called hu14E2-L1H3b) VH: EVQLVQSGAEVKKPGSSVKVSCKASGYTFTSYWMHWVRQAPGQGLEWMGNINPSSGATNYNEKFKSRVTLTVDKSTSTAYMELSSLRSEDTAVYYCARDRSSQYYFDYWGQGTTVTVSS VL: DIVMTQSPDSLAVSLGERATINCKSSQSLLNSRSRKNYLAWYQQKPGQPPKLLIYWASTRESGVPDRFSGSGSGTDFTLTISSLQAEDVAVYYCTQSYTLRTFGGGTKVEIK , and I need its recorded Top signal.
21100

Data origin, for the record: patent US20250223358A1
